molecular target: Nonstructural protein 3 (Zika virus, UniProt A0A024AXB9); assay: Competitive inhibition of C-terminal His-tagged ZIKV NSB2 (52 to 96 amino acids)-NS3 (1 to 184 amino acids) protease expressed in Escherichia coli BL21(DE3) preincubated for 10 mins followed by addition of Boc-GKR-AMC substrate and measured by flourescence based plate reader assay
Sequence (A0A024AXB9 whole entry, the tested form may be a part): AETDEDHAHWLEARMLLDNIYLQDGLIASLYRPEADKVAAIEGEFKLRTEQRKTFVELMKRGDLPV
measurement_label: Ki (nM)
Please state the figure in nM; there is no need to write the unit.

Qu. // returns reported Ki for input N=C(N)N[C@H]1CC[C@H](CNC(=O)[C@H](CCCCN)NC(=O)[C@H](CCCCN)NC(=O)Cc2ccc(OCCCCS)cc2)CC1
Ans. 79

----------
molecular target: Genome polyprotein (West Nile virus, UniProt P06935)
Sequence (P06935 1371-1501 limits assumed): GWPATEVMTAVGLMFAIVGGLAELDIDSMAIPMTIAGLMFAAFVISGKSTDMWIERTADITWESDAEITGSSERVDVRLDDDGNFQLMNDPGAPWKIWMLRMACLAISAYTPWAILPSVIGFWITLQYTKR
Sequence (P06935 1502-2120 limits assumed): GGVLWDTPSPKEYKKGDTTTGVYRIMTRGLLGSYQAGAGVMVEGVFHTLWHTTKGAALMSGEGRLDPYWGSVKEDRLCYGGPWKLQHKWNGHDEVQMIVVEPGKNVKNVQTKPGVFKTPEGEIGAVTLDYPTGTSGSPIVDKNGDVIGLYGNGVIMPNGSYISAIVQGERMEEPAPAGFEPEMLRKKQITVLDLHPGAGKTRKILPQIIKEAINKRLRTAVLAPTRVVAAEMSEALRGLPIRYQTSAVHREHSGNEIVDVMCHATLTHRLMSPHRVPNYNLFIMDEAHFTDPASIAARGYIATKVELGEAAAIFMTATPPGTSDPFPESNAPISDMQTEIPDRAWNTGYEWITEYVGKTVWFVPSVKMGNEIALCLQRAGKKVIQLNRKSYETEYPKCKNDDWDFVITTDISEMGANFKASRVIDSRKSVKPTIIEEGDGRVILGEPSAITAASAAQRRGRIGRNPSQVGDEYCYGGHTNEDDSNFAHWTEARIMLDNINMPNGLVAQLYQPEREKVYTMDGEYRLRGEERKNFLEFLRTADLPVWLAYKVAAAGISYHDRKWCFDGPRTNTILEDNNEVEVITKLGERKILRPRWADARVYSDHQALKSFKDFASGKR
measurement_label: pKi
Interpret pKi as the negative base-10 log of the concentration measured in mol/L.

Qu. Write down the reported pKi of N=C(N)N[C@H]1CC[C@H](CNC(=O)[C@H](CCCCN)NC(=O)[C@H](CCCCN)NC(=O)Cc2ccc(OCCCCS)cc2)CC1 , test system: Genome polyprotein (West Nile virus, UniProt P06935).
Ans. 6.46

----------
target: Genome polyprotein (dengue virus type 2); experiment: Inhibition of recombinant N-terminal His-tagged DENV NS2B-NS3 protease expressed in Escherichia coli BL21(DE3) using Boc-GRR-AMC as substrate measured by flourescence based plate reader assay
Sequence (P29990 1346-1475 limits assumed): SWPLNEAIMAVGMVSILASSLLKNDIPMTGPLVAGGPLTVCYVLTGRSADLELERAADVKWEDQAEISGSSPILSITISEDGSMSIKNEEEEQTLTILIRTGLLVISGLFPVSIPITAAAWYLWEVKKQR
Sequence (P29990 1476-2093 limits assumed): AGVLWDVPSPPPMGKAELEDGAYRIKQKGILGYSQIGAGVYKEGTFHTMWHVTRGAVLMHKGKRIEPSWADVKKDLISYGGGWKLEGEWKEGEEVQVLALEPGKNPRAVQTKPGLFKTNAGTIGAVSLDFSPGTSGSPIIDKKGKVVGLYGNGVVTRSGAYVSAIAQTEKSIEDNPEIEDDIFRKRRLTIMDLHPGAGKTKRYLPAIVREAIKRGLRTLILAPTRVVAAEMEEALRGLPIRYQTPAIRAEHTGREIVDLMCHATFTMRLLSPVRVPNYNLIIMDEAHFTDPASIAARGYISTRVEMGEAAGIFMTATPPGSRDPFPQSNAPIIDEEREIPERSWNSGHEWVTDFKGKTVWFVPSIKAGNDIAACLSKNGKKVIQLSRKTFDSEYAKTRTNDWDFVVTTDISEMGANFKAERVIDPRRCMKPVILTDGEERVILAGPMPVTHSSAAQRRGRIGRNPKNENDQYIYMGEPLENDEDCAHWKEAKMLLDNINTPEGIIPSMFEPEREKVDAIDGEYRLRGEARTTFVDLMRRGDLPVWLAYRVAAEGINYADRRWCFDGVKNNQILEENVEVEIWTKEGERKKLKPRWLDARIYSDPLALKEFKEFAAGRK
measurement_label: pIC50
Interpret pIC50 as the negative base-10 log of the concentration measured in mol/L.

Qu. // returns reported pIC50 for input N=C(N)N[C@H]1CC[C@H](CNC(=O)[C@H](CCCCN)NC(=O)[C@H](CCCCN)NC(=O)Cc2ccc(OCCCCS)cc2)CC1
Ans. 4.77

----------
biological target: Genome polyprotein (West Nile virus, UniProt P06935)
measurement_label: pIC50
Interpret pIC50 as the negative base-10 log of the concentration measured in mol/L.

Qu. Write down the reported pIC50 of N=C(N)N[C@H]1CC[C@H](CNC(=O)[C@H](CCCCN)NC(=O)[C@H](CCCCN)NC(=O)Cc2ccc(OCCCCS)cc2)CC1 , test system: Genome polyprotein (West Nile virus, UniProt P06935).
Ans. 6.34

----------
molecular target: Nonstructural protein 3 (Zika virus)
measurement_label: IC50 (nM)
Please state the figure in nM; there is no need to write the unit.

Qu. Write down the reported IC50 of N=C(N)N[C@H]1CC[C@H](CNC(=O)[C@H](CCCCN)NC(=O)[C@H](CCCCN)NC(=O)Cc2ccc(OCCCCS)cc2)CC1 , test system: Nonstructural protein 3 (Zika virus).
Ans. 125
